Origin of values: paper PMC5041076

Molecular target: Human neutrophil elastase (Homo sapiens, UniProt P08246)
Construct: purchased Enzo BML-SE284
Sequence (P08246 30-267): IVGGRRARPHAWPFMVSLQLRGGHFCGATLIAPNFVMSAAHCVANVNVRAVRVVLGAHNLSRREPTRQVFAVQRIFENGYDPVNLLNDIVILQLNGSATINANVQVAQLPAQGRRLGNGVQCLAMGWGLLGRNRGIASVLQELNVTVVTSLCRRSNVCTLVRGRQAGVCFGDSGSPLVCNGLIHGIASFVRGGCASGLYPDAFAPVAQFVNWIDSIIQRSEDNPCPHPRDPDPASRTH
Test: Serine protease enzyme inhibition assay, HNE
Format: biochemical
Settings: at 30 M (so in the source), Table S3
Answer each item with its documented Inh % (HNE inhibition).
One number for each entry, in %.

Consider the following items and state reported Inh % (HNE inhibition) for each.
1. O=C(O)/C=C/c1ccc(O)cc1 [p-CA, p-coumaric acid, reference compound]
2. O=C(C=Cc1ccc(O)c(O)c1)OC1CC(O)(C(=O)O)CC(OC(=O)C=Cc2ccc(O)c(O)c2)C1O (stereo not shown)
3. O=C(/C=C/c1ccc(O)c(O)c1)O[C@@H]1C[C@](O)(C(=O)O)C[C@@H](O)[C@H]1O
4. O=C(/C=C/c1ccc(O)c(O)c1)O[C@H]1[C@H](O)C[C@](O)(C(=O)O)C[C@H]1OC(=O)/C=C/c1ccc(O)c(O)c1 [Compound 4, 3,4-DCQA]
5. O=C(/C=C/c1ccc(O)c(O)c1)O[C@H]1[C@H](O)C[C@](O)(C(=O)O)C[C@H]1OC(=O)/C=C/c1ccc(O)c(O)c1 [Compound 7, 4,5-DCQA]
6. O=C(C=Cc1ccc(O)c(O)c1)OC1CC(O)(C(=O)O)CC(O)C1O (stereo not shown)
7. O=C(/C=C/c1ccc(O)c(O)c1)O[C@H](Cc1ccc(O)c(O)c1)C(=O)O [RA, rosaminiric acid, reference compound]
8. O=C(C=Cc1ccc(O)c(O)c1)OC1C(O)CC(O)(C(=O)O)CC1O (stereo not shown)

OUTPUT:
1: -4.00; 2: 90.53; 3: -4.76; 4: 9.91; 5: 36.42; 6: -2.99; 7: 10.58; 8: -3.43

Return reported Inh % (HNE inhibition) values for all items listed beneath this line.
1. COc1cc(/C=C/C(=O)O)ccc1O [FA, ferulic acid, reference compound]
2. O=C(O)C=Cc1cccc(O)c1 [Compound 3-HCA, 3-hydroxycinnamic acid, reference compound]

OUTPUT:
[0.06, -3.63]

###

Tested on: LTB4-induced human neutrophils
Experiment: Elastase release in LTB4-induced neutrophils
Type: cell-based
Conditions: Neutrophil, inducer LTB4, Table S2
assayEndpoint: pIC50
One number for each entry, as −log10 of the molar value.

INPUT: Which pIC50 is listed for O=C(C=Cc1ccc(O)c(O)c1)OC1CC(O)(C(=O)O)CC(OC(=O)C=Cc2ccc(O)c(O)c2)C1O (stereo not shown) ?
OUTPUT: 5.54

###

Biological target: Human neutrophil elastase (Homo sapiens, UniProt P08246)
Construct: purchased Enzo BML-SE284
Assay: Serine protease enzyme inhibition assay, HNE
Format: biochemical
Conditions: enzyme assay, mean ± S.E.M. (n ≥ 3); read-out: IC50 HNE
assayEndpoint: IC50

Completed entries (count: 9):
O=C(C=Cc1ccc(O)c(O)c1)OC1CC(O)(C(=O)O)CC(OC(=O)C=Cc2ccc(O)c(O)c2)C1O (stereo not shown) :: 1.86 µM
O=C(C=Cc1ccc(O)c(O)c1)OC1C(O)CC(O)(C(=O)O)CC1O (stereo not shown) :: > 30 µM
CC1=C2C3=CCC4[C@@]5(C)CC[C@H](O)C(C)(C)C5CC[C@@]4(C)[C@]3(C)CC[C@@]2(C(=O)O)CC[C@H]1C (stereo partly shown) :: > 30 µM
N#C/C=C1/C=C[C@@H](O)C[C@H]1O[C@@H]1O[C@H](CO)[C@@H](O)[C@H](O)[C@H]1O :: > 30 µM
C=C1C2=C3C=C[C@@H]4[C@@]5(C)CC[C@H](O)C(C)(C)[C@@H]5CC[C@@]4(C)[C@]3(C)CC[C@@]23CC[C@]1(C)OC3=O :: 8.55 µM
CC1(C)[C@@H](O)CC[C@]2(C)[C@H]3C=CC4=C5[C@]6(CC[C@](C)(OC6=O)[C@@]5(C)O)CC[C@@]4(C)[C@]3(C)CC[C@@H]12 :: > 30 µM
CC1=C(C)C2C3=CCC4[C@@]5(C)CC[C@H](O)C(C)(C)C5CC[C@@]4(C)[C@]3(C)CC[C@@]2(C(=O)O)CC1 (stereo partly shown) :: 24.7 µM
C[C@@H]1O[C@@H](O[C@H]2[C@H](OC(=O)[C@]34CCC(C)(C)[C@@H](O)[C@H]3C3=CC[C@@H]5[C@@]6(C)CC[C@H](O[C@@H]7OC[C@H](O)[C@H](O[C@@H]8O[C@H](CO)[C@@H](O)[C@H](O)[C@H]8O)[C@H]7O[C@@H]7O[C@@H](C)[C@H](O)[C@@H](O)[C@H]7O)C(C)(C)[C@@H]6CC[C@@]5(C)[C@]3(C)CC4)O[C@H](CO)[C@@H](O)[C@@H]2O)[C@H](O)[C@H](O)[C@H]1O :: > 30 µM
O=C(/C=C/c1ccc(O)c(O)c1)O[C@H]1[C@H](O)C[C@](O)(C(=O)O)C[C@H]1OC(=O)/C=C/c1ccc(O)c(O)c1 [Compound 4, 3,4-DCQA] :: > 30 µM

Kindly consider the entry below.
INPUT: Need IC50 of "C[C@@H]1O[C@@H](O[C@H]2[C@H](O[C@H]3CC[C@]4(C)[C@H]5C=CC6=C7[C@]8(CC[C@](C)(OC8=O)[C@@]7(C)O)CC[C@@]6(C)[C@]5(C)CC[C@H]4C3(C)C)OC[C@H](O)[C@@H]2O[C@@H]2O[C@H](CO)[C@@H](O)[C@H](O)[C@H]2O)[C@H](O)[C@H](O)[C@H]1O" , thanks.
OUTPUT: > 30 µM
